# Test method notes: qHTS for Inhibitors of human tyrosyl-DNA phosphodiesterase 1 (TDP1): qHTS in cells in presence of CPT; also: nearly all actives have a fitted effect of over 55% in size; also: potency is read from the fitted curve at half-maximal effect
# Measurement context: chicken DT40 Tdp1-/-;hTDP1 cells + 20 nM CPT, ATP luminescence, 48 h; series mostly up to 46.2 µM
Among all 420,000 compounds or so, about 50,000 (12%) were called active. Another 26% or so got no clear call; they are omitted. Many of the other results were omitted from the sample, so actives are more common in it than they were.
Readout name: Potency

CCCCSc1[nH]c(=O)c(C(=O)OCC)cc1C#N = inactive
c1ccc2c(c1)CCc1snnc1-2 = inactive
CCc1ccccc1OCC(=O)Nc1ccc(C)c(S(=O)(=O)N2CCCCCC2)c1 = 14.6 µM (active)
Cc1ccccc1OCC(=O)Nc1ccc(N2CCN(C(=O)C(C)C)CC2)c(Cl)c1 = 13 µM (active)

* * *

# Test method notes: qHTS for Inhibitors of human tyrosyl-DNA phosphodiesterase 1 (TDP1): qHTS in cells in presence of CPT; also: nearly all actives have a fitted effect of over 55% in size
# Measurement context: chicken DT40 Tdp1-/-;hTDP1 cells + 20 nM CPT, ATP luminescence, 48 h; series mostly up to 46.2 µM
The whole screen tested about 420,000 compounds, of which about 50,000 (12%) were called active. Another 26% or so got no clear call; they are omitted. Calls come from the whole dose curve; as a rule, active = well fitted inhibition curve with a large enough effect; inconclusive = small, poorly fitted or top-dose-only effect; inactive = flat fitted curve, though single readings scatter. The list comes from a sample in which actives are over-represented; it also holds close analogues and randomly drawn compounds.
Hi there, use one of these labels in your reply, thanks! 1 (yes) (active), 0 (no) (inactive)

Give the logged outcome of this assay for the following compound: CCCNC(=O)c1ccc(Cn2c(SCC(N)=O)nc3ccccc3c2=O)cc1
0 (no)

Give the logged outcome of this assay for the following compound: O=C(Nc1cccnc1Oc1ncnc2cc(Cl)ccc12)c1ccc(F)cc1
0 (no)

Give the logged outcome of this assay for the following compound: COCCN(C(=O)C(C)C)c1nnc(-c2ccc(C(C)(C)C)cc2)s1
1 (yes)

Give the logged outcome of this assay for the following compound: Cc1cccc(NC(=O)Cc2ccc(Br)cc2)n1
0 (no)

Give the logged outcome of this assay for the following compound: CCOC(=O)/C=C/CN(C(=O)OC(C)(C)C)S(=O)(=O)N1CC=CC1
0 (no)

Give the logged outcome of this assay for the following compound: Cc1ccc(C(=O)Nc2nnc(-c3ccncc3)s2)o1
0 (no)

Give the logged outcome of this assay for the following compound: CN(C)NC(=O)C(NC(=O)c1ccc(N)cc1)C12CC3CC(CC(C3)C1)C2 (stereo unspecified)
0 (no)

Give the logged outcome of this assay for the following compound: Cc1cccn2c(=O)c(C(=O)NC(C)c3ccccc3)cnc12 (stereo unspecified)
0 (no)

Give the logged outcome of this assay for the following compound: O=C(O)c1ccc(/C=N/NC(=O)c2ccc(Br)cc2)cc1
0 (no)

Give the logged outcome of this assay for the following compound: Cn1cc(CN2CCCCC2c2ccccn2)c(-c2ccc3c(c2)OCCO3)n1 (stereo unspecified)
0 (no)

Give the logged outcome of this assay for the following compound: CCCn1c(C)cc(-c2csc(NC(=O)CCc3nc4ccccc4c(=O)[nH]3)n2)c1C
1 (yes)

* * *

# Test method notes: qHTS for Inhibitors of human tyrosyl-DNA phosphodiesterase 1 (TDP1): qHTS in cells in presence of CPT; also: nearly all actives have a fitted effect of over 55% in size
# Measurement context: chicken DT40 Tdp1-/-;hTDP1 cells + 20 nM CPT, ATP luminescence, 48 h; series mostly up to 46.2 µM
The campaign covered roughly 420,000 compounds. About 50,000 (12%) were called active. Another 26% or so got no clear call; they are omitted. Calls follow the shape of the dose curve; as a rule, active = well fitted inhibition curve with a large enough effect; inconclusive = small, poorly fitted or top-dose-only effect; inactive = flat fitted curve, though single readings scatter. Only a selection was taken, and actives are over-represented in it overall.
Hi there, use one of these labels in your reply, thanks! True (active), False (inactive)

Give the logged outcome of this assay for the following compound: CCOc1ccc(NC(=O)C/C(C)=N/NC(=O)Cc2cccs2)cc1
False

Give the logged outcome of this assay for the following compound: Cc1ccccc1-c1nc(NC(C)C)nc2cc(-c3ccccc3)sc12
True

Give the logged outcome of this assay for the following compound: O=C(NCCN1CCOCC1)c1cccc(S(=O)(=O)Nc2ccc(F)cc2)c1
False

Give the logged outcome of this assay for the following compound: CC1CCN(C(=O)/C(=C\c2ccccc2F)NC(=O)c2ccccc2)CC1
False

Give the logged outcome of this assay for the following compound: COc1cccc(NC(=O)C(C)Oc2ccccc2)c1 (stereo unspecified)
False

Give the logged outcome of this assay for the following compound: CC(=O)c1c(C)oc2ccc(NS(=O)(=O)c3ccc(C(=O)O)cc3)cc12
False

Give the logged outcome of this assay for the following compound: CCOC(=O)C1CCCN(C(=O)c2cccc(S(=O)(=O)N3CCOCC3)c2)C1 (stereo unspecified)
False

Give the logged outcome of this assay for the following compound: Cc1ccc(OCC(=O)OCc2cc(=O)n3nc(C4CC4)sc3n2)cc1
False

Give the logged outcome of this assay for the following compound: O=C(CSCc1c(Cl)cccc1Cl)NN1C(=O)c2ccccc2C1=O
False

Give the logged outcome of this assay for the following compound: O=C(Cc1cccs1)Nc1ccc([N+](=O)[O-])cc1
False

Give the logged outcome of this assay for the following compound: CCOC(=O)C1CCCN(C(=O)c2ccc(N(C)C)cc2)CC1 (stereo unspecified)
False

Give the logged outcome of this assay for the following compound: Cc1cc(=O)oc2c1ccc1ccccc12
False

Give the logged outcome of this assay for the following compound: COc1cc(/C=N/N=C(\N)c2nonc2N)cc(OC)c1OC
False

Give the logged outcome of this assay for the following compound: O=S1(=O)CCOC[C@H](Cc2ccccc2)N1Cc1ccccc1Br
False

Give the logged outcome of this assay for the following compound: COc1cccc(NC(=O)C2C(c3ccccc3)C2(Cl)Cl)c1 (stereo unspecified)
True

Give the logged outcome of this assay for the following compound: COc1ccc(-c2c(C)nn3c(N4CCC(C(=O)N5CCCCC5)CC4)cc(C)nc23)cc1OC
False

Give the logged outcome of this assay for the following compound: COc1ccc(S(=O)(=O)NCC2CCCN(C(=O)c3occc3C)C2)cc1 (stereo unspecified)
False

Give the logged outcome of this assay for the following compound: COc1cccc(NC(=O)c2csnn2)c1
False

Give the logged outcome of this assay for the following compound: CCCn1c(=S)[nH]c2ccc(C(F)(F)F)cc21
False

Give the logged outcome of this assay for the following compound: CCOc1ccc(N2C(=O)CSC2=NC#N)cc1
False

Give the logged outcome of this assay for the following compound: O=S(=O)(NCCCN1CCOCC1)c1ccc(F)c(Cl)c1
False

* * *

# Test method notes: qHTS for Inhibitors of human tyrosyl-DNA phosphodiesterase 1 (TDP1): qHTS in cells in presence of CPT; also: nearly all actives have a fitted effect of over 55% in size; also: potency is read from the fitted curve at half-maximal effect
# Measurement context: chicken DT40 Tdp1-/-;hTDP1 cells + 20 nM CPT, ATP luminescence, 48 h; series mostly up to 46.2 µM
Among all 420,000 compounds or so, about 50,000 (12%) were called active. Inconclusive results (about 26%) are left out. Many of the other results were omitted from the sample, so actives are more common in it than they were.
Readout name: Potency

The cases that follow already have their Potency on record.
C=CCN1CN(S(=O)(=O)c2ccc(OC)cc2)c2nc3ccccc3nc21 = inactive
COC(=O)c1ccc2nc(-c3ccc(OC)c(OC)c3)c(Cc3ccccc3)n2c1 = 23.1 µM (active)
CC(C)Oc1ccc(C(CC(=O)N2CCOCC2)C(C)C)cc1 (centres undefined) = inactive
Cc1cc(NC(=O)CSc2nnnn2-c2ccc(F)cc2)no1 = inactive
COc1ccc(NC(=O)c2cc(-c3ccc(C)cc3)on2)cc1 = inactive

Briefly, Potency measured for COc1ccc(C(=O)OCC(=O)NCCCc2ccccc2)cc1OC : inactive

* * *

# Test method notes: qHTS for Inhibitors of human tyrosyl-DNA phosphodiesterase 1 (TDP1): qHTS in cells in presence of CPT; also: nearly all actives have a fitted effect of over 55% in size
# Measurement context: chicken DT40 Tdp1-/-;hTDP1 cells + 20 nM CPT, ATP luminescence, 48 h; series mostly up to 46.2 µM
Screen size: about 420,000 compounds; about 50,000 (12%) were called active. Another 26% or so got no clear call; they are omitted. Calls follow the shape of the dose curve; as a rule, active = well fitted inhibition curve with a large enough effect; inconclusive = small, poorly fitted or top-dose-only effect; inactive = flat fitted curve, though single readings scatter. For the sample, actives were picked, then their nearest neighbours and some compounds at random.
Hi there, use one of these labels in your reply, thanks! active, inactive

Give the logged outcome of this assay for the following compound: O=C(CN1C(=O)NC(Cc2c[nH]c3ccccc23)C1=O)Nc1ccccc1C(F)(F)F (stereo not given)
inactive

Give the logged outcome of this assay for the following compound: O=C(Nc1ccc(Cl)cc1)C1Cc2c(-c3ccc4c(c3)OCO4)ccnc2O1 (stereo not given)
active

Give the logged outcome of this assay for the following compound: CCC(=O)N(Cc1cc2cc(OC)ccc2[nH]c1=O)c1ccccc1C
inactive

Give the logged outcome of this assay for the following compound: O=C(CN1C(=O)/C(=C\c2ccc(C(F)(F)F)cc2)Sc2ccccc21)NCc1ccco1
active

Give the logged outcome of this assay for the following compound: COc1ccc(N(CC(=O)NC2CCCC2)C(=O)CS(=O)CC(=O)Nc2ccc3c(c2)OCO3)cc1 (stereo not given)
inactive

Give the logged outcome of this assay for the following compound: COC(=O)c1ccc(CNC(=O)c2ccc(S(=O)(=O)N3CCCCCC3)cc2)cc1
inactive

Give the logged outcome of this assay for the following compound: CN(C)c1ccc(-c2nc(NCCN3CCOCC3)c3ccccc3n2)cc1
active

Give the logged outcome of this assay for the following compound: O=C(Nc1ccc(O)cc1)c1ccc(NC(=O)c2ccco2)cc1
inactive

Give the logged outcome of this assay for the following compound: CC1O[C@@H](OC2C(O)C(C)O[C@H](OC(=O)[C@]34CCC(C)(C)C[C@H]3C3=CCC5[C@@]6(C)CC(O)C(O[C@@H]7OC(CO)C(O)[C@@H](O)[C@@H]7O)[C@@](C)(C(=O)O)C6CC[C@@]5(C)[C@]3(CO)CC4)C2O[C@H]2OC(C)[C@@H](O[C@@H]3OCC(O[C@@H]4OC(CO)C(O)[C@H](O)C4O)[C@@H](O)[C@@H]3O)[C@H](O)C2O)C(O)C(O)C1O (stereo not given in full)
inactive

Give the logged outcome of this assay for the following compound: COc1ccc(N(Cc2cc3cc(OC)ccc3[nH]c2=O)S(C)(=O)=O)cc1
inactive

Give the logged outcome of this assay for the following compound: COc1ccc2[nH]c(=O)c(CNc3ccc(C)c(C)c3)cc2c1
active

Give the logged outcome of this assay for the following compound: CC(=O)Nc1ccc(-c2ccnc3c2CC(C(=O)NC(C)C)O3)cc1 (stereo not given)
inactive

Give the logged outcome of this assay for the following compound: O=C(NCCc1ccccc1)C1CC1
inactive

Give the logged outcome of this assay for the following compound: COc1cc2c(cc1OC)CN(C(=O)c1cc(S(=O)(=O)N3CCCCC3)ccc1Cl)CC2
active

Give the logged outcome of this assay for the following compound: O=C1OC(C(=O)Nc2cccc(Br)c2)Cc2ccccc21 (stereo not given)
inactive
